Overview of recorded pEC50 for various compounds
Test system: SARS-CoV-2 Omicron lineage BQ.1.1 hCoV-19/Russia/TOM-SRC-8663/2023
METHOD DESCRIPTION: Antiviral CPE reduction assay in Vero E6 cells, Omicron BQ.1.1
Format: cell-based
CONDITION SUMMARY: Severe acute respiratory syndrome coronavirus 2, Vero C1008, 96 h
pEC50: −log10 of the molar value.

>  <COMPOUND>
CC(=O)C1=C(O)C=C2Oc3c(-c4csc(N/N=C/c5ccc(Br)s5)n4)c(O)c(C)c(O)c3[C@@]2(C)C1=O [(+)-3e]

>  <ASSAY SYSTEM>
SARS-CoV-2 Omicron lineage BQ.1.1 hCoV-19/Russia/TOM-SRC-8663/2023

>  <pEC50>
4.49

$$$$
>  <COMPOUND>
CCC(CC)COC(=O)[C@H](C)N[P@](=O)(OC[C@H]1O[C@@](C#N)(c2ccc3c(N)ncnn23)[C@H](O)[C@@H]1O)Oc1ccccc1 [Remdesivir, reference compound]

>  <ASSAY SYSTEM>
SARS-CoV-2 Omicron lineage BQ.1.1 hCoV-19/Russia/TOM-SRC-8663/2023

>  <pEC50>
5.50

$$$$

###

Tested on: SARS-CoV-2 Omicron, XBB 1.5 hCoV-19/Russia/SAK-SRC-8527/2023
METHOD DESCRIPTION: Antiviral CPE reduction assay in Vero E6 cells, Omicron XBB.1.5
Format: cell-based
CONDITION SUMMARY: Severe acute respiratory syndrome coronavirus 2, Vero C1008, 96 h
Item-by-item account of EC50

>  <COMPOUND>
CC(=O)C1=C(O)C=C2Oc3c(-c4csc(N/N=C/c5ccc(Br)s5)n4)c(O)c(C)c(O)c3[C@@]2(C)C1=O [(+)-3e]

>  <UNIT SPEC>
µM

>  <EC50>
22.4

$$$$
>  <COMPOUND>
CCC(CC)COC(=O)[C@H](C)N[P@](=O)(OC[C@H]1O[C@@](C#N)(c2ccc3c(N)ncnn23)[C@H](O)[C@@H]1O)Oc1ccccc1 [Remdesivir, reference compound]

>  <UNIT SPEC>
µM

>  <EC50>
2.65

$$$$

###

Recorded CC50 at 4 days, one value per entry.
METHOD DESCRIPTION: Cytotoxicity (MTT) in Vero E6 cells
Type: cell-based
CONDITION SUMMARY: African green monkey
REPORTED METRIC: CC50 at 4 days (µM)

>  <COMPOUND>
CC(=O)C1=C(O)C=C2Oc3c(-c4csc(N/N=C/c5ccc(Br)s5)n4)c(O)c(C)c(O)c3[C@@]2(C)C1=O [(+)-3e]

>  <REPORTED METRIC>
CC50 at 4 days

>  <ENDPOINT RESULT>
350

$$$$
>  <COMPOUND>
CCC(CC)COC(=O)[C@H](C)N[P@](=O)(OC[C@H]1O[C@@](C#N)(c2ccc3c(N)ncnn23)[C@H](O)[C@@H]1O)Oc1ccccc1 [Remdesivir, reference compound]

>  <REPORTED METRIC>
CC50 at 4 days

>  <ENDPOINT RESULT>
711

$$$$
